Reference source: patent US20250115591A1

Test Protocol: PK, intravenous administration
Type: in vivo, male Sprague Dawley rats
Measurement Conditions: male, Sprague Dawley, rat, in vivo, iv, 1.86 mg/kg
Structures can show the parent of a compound that is named as a salt.
Property: Vd
In your response, put the unit directly after the numeric value.

Query: Bench note: what Vd did CCN1[C@@H]2CC[C@H]1C[C@H](S(=O)(=O)NC(=O)Nc1c3c(cc4c1CCC4)CCC3)C2 [Example 70, potassium salt] show?
Result: 0.53 L/kg

----------
System Name: NLRP3 (Homo sapiens (Human), UniProt Q96P20)
Sequence (Q96P20 whole entry): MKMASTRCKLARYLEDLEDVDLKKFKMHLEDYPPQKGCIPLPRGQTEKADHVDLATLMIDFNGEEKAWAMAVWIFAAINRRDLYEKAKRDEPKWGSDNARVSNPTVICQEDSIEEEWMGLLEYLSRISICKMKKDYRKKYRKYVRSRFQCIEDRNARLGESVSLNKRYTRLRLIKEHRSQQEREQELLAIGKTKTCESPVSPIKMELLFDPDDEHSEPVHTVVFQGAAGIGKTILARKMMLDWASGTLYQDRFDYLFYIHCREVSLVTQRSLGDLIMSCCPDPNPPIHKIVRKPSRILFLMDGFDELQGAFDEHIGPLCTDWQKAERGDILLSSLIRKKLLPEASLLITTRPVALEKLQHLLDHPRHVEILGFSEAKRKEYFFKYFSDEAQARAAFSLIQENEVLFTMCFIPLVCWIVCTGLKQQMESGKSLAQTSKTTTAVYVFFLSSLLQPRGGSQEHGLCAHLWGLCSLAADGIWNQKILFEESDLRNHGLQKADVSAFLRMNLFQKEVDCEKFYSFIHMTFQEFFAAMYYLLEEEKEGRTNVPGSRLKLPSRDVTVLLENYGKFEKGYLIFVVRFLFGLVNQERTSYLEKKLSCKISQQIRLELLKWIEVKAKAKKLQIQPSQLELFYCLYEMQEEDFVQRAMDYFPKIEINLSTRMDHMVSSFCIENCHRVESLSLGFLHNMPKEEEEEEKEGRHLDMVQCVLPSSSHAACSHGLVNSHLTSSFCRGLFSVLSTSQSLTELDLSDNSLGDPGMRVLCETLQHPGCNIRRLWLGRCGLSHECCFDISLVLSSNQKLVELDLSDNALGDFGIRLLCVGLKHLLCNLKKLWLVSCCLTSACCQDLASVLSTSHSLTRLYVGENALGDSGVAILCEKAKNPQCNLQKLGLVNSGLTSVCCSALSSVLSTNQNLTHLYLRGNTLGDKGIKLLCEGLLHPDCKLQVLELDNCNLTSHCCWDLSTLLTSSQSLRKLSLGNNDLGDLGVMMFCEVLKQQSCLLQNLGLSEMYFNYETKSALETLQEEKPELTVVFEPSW
Test Protocol: THP-1 cells pyroptosis assay (LPS + nigericin, resazurin read-out)
Type: cell-based
Measurement Conditions: 1 μg/ml LPS, 5 μM nigericin
pIC50: −log10 of the molar value. Structures can show the parent of a compound that is named as a salt.
Property: pIC50

Compound: CCN1CCC(S(=O)(=O)NC(=O)Nc2c3c(cc4c2CCC4)CCC3)CC1 [Example 6, potassium salt]
Property: pIC50
Observed: > 6.00
--
Compound: O=C(Nc1c2c(cc3c1CCC3)CCC2)NS(=O)(=O)C1CCCN(CC2CC2)C1 (stereo not shown) [Example 57, potassium salt]
Property: pIC50
Observed: 5.00 to 6.00

Query: Could you share which pIC50 value was measured for CC(C)c1cc(F)cc(-c2ccnc(C#N)c2)c1NC(=O)NS(=O)(=O)c1ccc(=O)n(C(C)C)c1 [Example 172] ?
Result: > 6.00

Query: Value lookup for pIC50; key = O=C(Nc1c2c(cc3c1CCC3)CCC2)NS(=O)(=O)C1CN(CCO)C1 [Example 152, potassium salt]
Result: > 6.00
